Data provenance: PubChem BioAssay (NCI)

# System: OVCAR-8 ovarian
# test_name: NCI-60 one-dose screen, 48 h (100 = growth as untreated, 0 = no growth, -100 = all killed)
# experimental_setup: 10 µM unless noted
About 83,000 compounds went through this panel and 20% of them were active in at least one assay; those are over-represented in the sample as a whole.
measured_attribute: growth (%)
Field: numeric (%). Do not append units.

Use the examples below as a reference point.
{"compound": "CN1CCC(n2cc(Nc3ncc4c(=O)n(-c5c(Cl)cccc5Cl)cc(Br)c4n3)cn2)CC1", "measured_attribute": "growth", "obs_value": 6.91}
{"compound": "NC(=O)c1cccc(-n2ccc3cc(NC(=O)Nc4ccc(N5CCOCC5)c(C(F)(F)F)c4)ccc32)n1", "measured_attribute": "growth", "obs_value": 11.6}
{"compound": "O=C(NNc1nc2cc(F)ccc2n2c(CN3CCCC3)ccc12)c1cnccn1", "measured_attribute": "growth", "obs_value": 13.9}

growth for COc1ccc(-c2nc3cc(Cl)c(Cl)cc3n2CC(=O)N=Nc2c(O)[nH]c3ccc(OC)cc23)cc1 ? 74.5

Note, next up: COC(=O)C(Cc1ccccc1)Nc1nc(NC(Cc2ccccc2)C(=O)OC)nc(N2CCOCC2)n1 (stereo not drawn) 99.6

Note, next up: NS(=O)(=O)c1ccc(Nc2nc(Nc3ccccc3)nc3nnc(SCC(=O)NC4CCCCC4)n23)cc1 99.8

---

# Tested on: NCI-H322M lung
# test_name: NCI-60 one-dose screen, 48 h (100 = growth as untreated, 0 = no growth, -100 = all killed)
# experimental_setup: 10 µM unless noted
About 83,000 compounds went through this panel and 20% of them were active in at least one assay; those are over-represented in the sample as a whole.
Threshold rule: growth greater than or equal to 90% is Met; below that, Not met.

{"compound": "O=S(=O)(NC1c2ccccc2C[C@H]1O)c1ccc(Cl)cc1Cl (some centres undefined)", "subject_of_test": "NCI-H322M lung", "classification": "Met"}
{"compound": "N=c1c2cc(-c3ccccc3)oc2ncn1/N=C/c1ccc(Br)cc1", "subject_of_test": "NCI-H322M lung", "classification": "Not met"}
{"compound": "Nc1nc(N)c2c(n1)NC(c1ccc(C(F)(F)F)cc1)CC(c1ccc(Nc3nc(NCCO)nc(N4CCOCC4)n3)cc1)=N2 (centres undefined)", "subject_of_test": "NCI-H322M lung", "classification": "Met"}

Quick check: does CS(=O)(=O)Nc1cc(-c2ccc3ncc(C#N)c(Nc4cccc(Cl)c4F)c3c2)cnc1Cl have growth greater than or equal to 90%? Not met

Note, next up: O=C(c1ccc(Cl)cc1)C1[C@H](c2ccc(Cl)cc2)[C@@H](c2ccccc2)NC12C(=O)Nc1ccccc12 (some centres undefined) Not met

Note, next up: CCc1ccc(SC2c3ccc(N(CC)CC)cc3Oc3nc(N)c(C#N)c(N)c32)cc1 (centres undefined) Not met

Note, next up: CC(C)(C)n1nnnc1C(Nc1cccc2c1OCO2)c1cc2cccc3ccc4cccc1c4c32 (centres undefined) Met

---

# Test system: NCI-H522 lung
# test_name: NCI-60 one-dose screen, 48 h (100 = growth as untreated, 0 = no growth, -100 = all killed)
# experimental_setup: 10 µM unless noted
Compounds without any hit were thinned out: in the full panel of roughly 83,000, 20% have a hit.
Items are presented alongside their recorded growth.
Field: numeric (%). Do not append units.

{"compound": "COc1cc(OC)cc(C(=O)Nc2cccc(C#Cc3cccc4[nH]nc(N)c34)c2)c1", "growth [%]": 2.45}

growth for N#Cc1cccc(NC(=O)c2cc(-c3ccc(F)cc3F)ccc2O)c1 ? 1.9

---

# System: COLO 205 colon
# test_name: NCI-60 one-dose screen, 48 h (100 = growth as untreated, 0 = no growth, -100 = all killed)
# experimental_setup: 10 µM unless noted
# Protocol: Cells are grown in 96 well plates and exposed to the test compound for 48 hours. Compounds are tested at a single concentration, which is 10^-5 M for most compounds. The reported endpoint is percent growth (GI% or GIPRCNT), where numbers from 0 - 100% represent growth inhibition, and numbers from -100% - 0 represent cell death. For example, a value of 40 represents 60% growth inhibition. A value of 0 means no net growth occurred over the course of the experiment. […]
About 83,000 compounds went through this panel and 20% of them were active in at least one assay; those are over-represented in the sample as a whole.
Lab note: compare growth with 70%, writing yes (1) if less and no (0) if equal or more.

Worked set:
{"compound": "COc1ccc2c(c1)c(CC(=O)[Se]CCC#N)c(C)n2C(=O)c1ccc(Cl)cc1", "classification": "no (0)"}
{"compound": "CC/C(=C/c1c(O)cccc1OC)c1ccc2c(OC)cccc2[o+]1", "classification": "no (0)"}
{"compound": "O=C(Nc1nonc1-c1ccccc1)c1ccc(C(F)(F)F)cc1", "classification": "no (0)"}
{"compound": "COc1cc(/C=C/C(=O)c2ccc(NC(=O)CSc3nnc(-c4ccc(-c5nc6ccc(Cl)cc6[nH]5)cc4)o3)cc2)cc(OC)c1OC", "classification": "no (0)"}
{"compound": "COc1ccc(NC(=O)CSc2nnc(-c3ccc4nc(-c5ccccc5)[nH]c4c3)o2)cc1", "classification": "no (0)"}
{"compound": "CCN(CC)c1cn(-c2ccc(S(N)(=O)=O)cc2)nn1", "classification": "no (0)"}
{"compound": "N#Cc1cnc2ccc(-c3cnc4[nH]ncc4c3)cc2c1N1CCc2cc(F)c(Cl)cc21", "classification": "yes (1)"}
{"compound": "CCOC(=O)C(=O)CC(=O)N1C(=S)NC(=O)C1CC(C)C (centres undefined)", "classification": "no (0)"}
{"compound": "CC1(C)[C@@H](O)CC[C@]2(C)[C@H]3CC[C@@H]4[C@H]5[C@H](C(=O)/C=C\\c6ccccn6)CC[C@]5(O)CC[C@@]4(C)[C@]3(C)CC[C@@H]12", "classification": "yes (1)"}
{"compound": "CS(=O)(=O)Nc1cc(-c2ccc3ncc(C#N)c(NCc4cccc(F)c4)c3c2)cnc1Cl", "classification": "yes (1)"}

Bench note: check whether COc1ccc2c(c1)c(CC(=O)[Se]CC(=O)O)c(C)n2C(=O)c1ccc(Cl)cc1 shows growth below 70% no (0)

Note, next up: CNCc1cccc2c1OCCCCCCC(C)(O)CC(C)(C)S(=O)(=O)c1ccc(cc1)-c1cnc(N)c(n1)C(=O)N2 (centres undefined) yes (1)

Note, next up: O=C(CN1CCN(c2cc(=O)n(-c3ccccc3)c3ccccc23)CC1)Nc1ccc(F)cc1 no (0)

Note, next up: COc1cc(OC)c(S(N)(=O)=O)cc1C(=O)/C=C/c1ccc(C)cc1 yes (1)

Note, next up: CCCn1cnc2c(c1=N)C(c1ccc(F)cc1)c1sc3c(CC)cccc3c1O2 (centres undefined) yes (1)

Note, next up: Cc1ccc(NC(=S)NNC(=S)Nc2ccc(C)cc2)cc1 no (0)

Note, next up: COc1cc(-c2ccc3ncnc(NCc4ccccc4)c3c2)cnc1OC no (0)

Note, next up: COc1ccc(-c2nc3ccc(-c4nnc(SCC(=O)Nc5ccc(C(=O)/C=C/c6ccc(Cl)cc6)cc5)o4)cc3[nH]2)cc1 no (0)

Note, next up: O=C(Cn1cc[n+](CC(=O)c2ccc(-c3ccccc3)cc2)c1)Nc1cccc2cccnc12 no (0)

---

# Tested on: MCF7 breast
# test_name: NCI-60 one-dose screen, 48 h
# experimental_setup: 10 µM unless noted
About 83,000 compounds went through this panel and 20% of them were active in at least one assay; those are over-represented in the sample as a whole. Active and inactive are the calls of the source. The calls were made as follows: active = growth percent below 10; inactive = the rest.
Field 'call' accepts active, inactive

Worked set:
{"compound": "NC(N)=Nc1ccc(Oc2cccc(Oc3ccc(Cl)c(C(F)(F)F)c3)c2)cn1", "subject_of_test": "MCF7 breast", "classification": "active"}
{"compound": "Oc1cccc2ccc(-c3nnc(SCc4ccc(O)c5ncccc45)n3-c3ccccc3)nc12", "subject_of_test": "MCF7 breast", "classification": "active"}
{"compound": "COc1cc2nc(Cl)nc(Nc3cccc(C4=Nc5c(N)nc(N)nc5NC(c5ccc(F)cc5)C4)c3)c2cc1OC (stereo unspecified)", "subject_of_test": "MCF7 breast", "classification": "active"}

Please indicate how the test categorized O=C1CCCc2nc(Nc3ccc(S(=O)(=O)Nc4ccc([N+](=O)[O-])cc4)cc3)ncc21 . inactive

Note, next up: O=C(NCCn1ccnc1)c1ccc(-c2nc3ccc4[nH]ncc4c3c3c2CCCC3)cc1 inactive

Note, next up: C#CCNC1CCC(c2csc(C#C)n2)=C1C (stereo unspecified) inactive

Note, next up: CCN1CCN(C(=O)[C@]23CCC(C)(C)C[C@H]2C2=CC[C@@H]4[C@@]5(C)Cc6c([nH]c7ccccc67)C(C)(C)[C@@H]5CC[C@@]4(C)[C@]2(C)CC3)CC1 inactive

Note, next up: NS(=O)(=O)c1ccc(Nc2nc(N/N=C/c3ccccn3)nc(Nc3ccccc3)n2)cc1 active

Note, next up: CCCCc1nc(/C=N/Nc2nc(Nc3ccccc3)nc(Nc3ccc(S(N)(=O)=O)cc3)n2)c(Cl)[nH]1 inactive

Note, next up: c1cn2c(ccc3nc(-c4cn[nH]c4)c4c(c32)CCCC4)n1 inactive
